Molecular target: 3',5'-cyclic-AMP phosphodiesterase 4D (Homo sapiens, UniProt Q08499)
Sequence (Q08499 whole entry): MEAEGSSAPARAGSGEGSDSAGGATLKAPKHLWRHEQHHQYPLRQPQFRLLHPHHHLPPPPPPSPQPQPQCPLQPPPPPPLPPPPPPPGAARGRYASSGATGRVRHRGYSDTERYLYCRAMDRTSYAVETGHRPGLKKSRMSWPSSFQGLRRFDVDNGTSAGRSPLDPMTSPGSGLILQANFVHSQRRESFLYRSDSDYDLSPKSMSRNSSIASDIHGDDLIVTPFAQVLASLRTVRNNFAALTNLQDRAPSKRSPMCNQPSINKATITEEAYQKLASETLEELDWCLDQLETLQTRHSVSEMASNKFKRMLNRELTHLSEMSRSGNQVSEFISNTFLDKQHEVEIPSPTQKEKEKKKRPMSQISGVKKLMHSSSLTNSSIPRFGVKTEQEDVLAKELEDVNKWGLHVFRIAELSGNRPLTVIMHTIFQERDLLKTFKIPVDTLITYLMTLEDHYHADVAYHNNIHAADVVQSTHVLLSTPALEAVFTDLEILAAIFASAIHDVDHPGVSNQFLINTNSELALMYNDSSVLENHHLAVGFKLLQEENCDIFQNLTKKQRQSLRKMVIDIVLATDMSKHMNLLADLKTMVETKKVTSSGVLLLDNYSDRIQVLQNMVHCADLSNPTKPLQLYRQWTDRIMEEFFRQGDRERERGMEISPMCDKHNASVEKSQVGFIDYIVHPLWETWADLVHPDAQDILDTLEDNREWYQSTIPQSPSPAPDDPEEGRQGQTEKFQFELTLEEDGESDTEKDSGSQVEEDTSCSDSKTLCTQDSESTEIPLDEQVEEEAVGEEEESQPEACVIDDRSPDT
Test: Inhibition of human PDE4D
Settings: read-out: IC50
test readout: IC50 (nM)
Respond with the bare value in nM.

Here is how some compounds turned out for IC50.
CCc1nc(Nc2ccc(C#N)cc2)nc(-c2cccc(Cl)c2)n1 | 13
CCc1nc(Nc2ccc(CC(=O)O)cc2)nc(-c2ccc(Cl)s2)n1 | 865

Record CCc1nc(Nc2ccc(NS(N)(=O)=O)cc2)nc(-c2cccc(Cl)c2)n1 ; system 3',5'-cyclic-AMP phosphodiesterase 4D (Homo sapiens, UniProt Q08499); IC50 = 160

Record CC(C)c1nc(Nc2ccc(C(=O)O)cc2)nc(-c2ccc(Cl)s2)n1 ; system 3',5'-cyclic-AMP phosphodiesterase 4D (Homo sapiens, UniProt Q08499); IC50 = 219

Record CCc1nc(Nc2ccc(C(=O)O)cc2)nc(-c2ccc(Cl)s2)n1 ; system 3',5'-cyclic-AMP phosphodiesterase 4D (Homo sapiens, UniProt Q08499); IC50 = 251

---

A collection of compounds and their measured pIC50
Target: 3',5'-cyclic-AMP phosphodiesterase 4D (Homo sapiens, UniProt Q08499)
Assay: Inhibition of human PDE4D
Details: read-out: IC50
Would you please state pIC50, meaning minus log10 of the concentration in mol/L, as a bare number?

O=C1CCC(NC2=NC(C3CC3)NC(c3cccc(Cl)c3)=N2)CN1 (configuration not stated) | 6.57

Record CCc1nc(Nc2ccc(CC(=O)O)cc2)nc(-c2ccc(F)cc2)n1 ; system 3',5'-cyclic-AMP phosphodiesterase 4D (Homo sapiens, UniProt Q08499); pIC50 = 6.14

Record CCc1nc(Nc2ccc(C(C)C(=O)O)cc2)nc(-c2cccc(Cl)c2)n1 (configuration not stated) ; system 3',5'-cyclic-AMP phosphodiesterase 4D (Homo sapiens, UniProt Q08499); pIC50 = 7.02

Record CCc1nc(Nc2ccc(C(C)(C)C(=O)O)cc2)nc(-c2cccc(Cl)c2)n1 ; system 3',5'-cyclic-AMP phosphodiesterase 4D (Homo sapiens, UniProt Q08499); pIC50 = 6.22

Record CCc1nc(Nc2ccc(C(=O)O)cc2)nc(-c2cccc(Cl)c2)n1 ; system 3',5'-cyclic-AMP phosphodiesterase 4D (Homo sapiens, UniProt Q08499); pIC50 = 6.67

Record CCc1nc(Nc2ccc(Cc3nnn[nH]3)cc2)nc(-c2cccc(Cl)c2)n1 ; system 3',5'-cyclic-AMP phosphodiesterase 4D (Homo sapiens, UniProt Q08499); pIC50 = 7.20

Record CCc1nc(Nc2ccc(CC(=O)O)cc2)nc(-c2cccc(Cl)c2)n1 ; system 3',5'-cyclic-AMP phosphodiesterase 4D (Homo sapiens, UniProt Q08499); pIC50 = 6.17

---

Species on record: Homo sapiens
Assay: Selectivity index, ratio of IC50 for human PDE4D to IC50 for human PDE4B
A collection of compounds and their measured Ratio IC50

Here is how some compounds turned out for Ratio IC50.
O=C(O)c1ccc(Nc2nc(-c3ccc(Cl)cc3)nc(C3CC3)n2)cc1 | 2
CCc1nc(Nc2ccc(C(C)C(=O)O)cc2)nc(-c2cccc(Cl)c2)n1 (stereo not drawn) | 0.09

The record that follows has no Ratio IC50 shown yet.
So for CCc1nc(Nc2ccc(CC(=O)O)cc2)nc(-c2cccc(Cl)c2)n1 , the logged Ratio IC50 turned out to be 0.9

---

A collection of compounds and their measured IC50
Target: 3',5'-cyclic-AMP phosphodiesterase 4B (Homo sapiens)
Sequence (Q07343 whole entry): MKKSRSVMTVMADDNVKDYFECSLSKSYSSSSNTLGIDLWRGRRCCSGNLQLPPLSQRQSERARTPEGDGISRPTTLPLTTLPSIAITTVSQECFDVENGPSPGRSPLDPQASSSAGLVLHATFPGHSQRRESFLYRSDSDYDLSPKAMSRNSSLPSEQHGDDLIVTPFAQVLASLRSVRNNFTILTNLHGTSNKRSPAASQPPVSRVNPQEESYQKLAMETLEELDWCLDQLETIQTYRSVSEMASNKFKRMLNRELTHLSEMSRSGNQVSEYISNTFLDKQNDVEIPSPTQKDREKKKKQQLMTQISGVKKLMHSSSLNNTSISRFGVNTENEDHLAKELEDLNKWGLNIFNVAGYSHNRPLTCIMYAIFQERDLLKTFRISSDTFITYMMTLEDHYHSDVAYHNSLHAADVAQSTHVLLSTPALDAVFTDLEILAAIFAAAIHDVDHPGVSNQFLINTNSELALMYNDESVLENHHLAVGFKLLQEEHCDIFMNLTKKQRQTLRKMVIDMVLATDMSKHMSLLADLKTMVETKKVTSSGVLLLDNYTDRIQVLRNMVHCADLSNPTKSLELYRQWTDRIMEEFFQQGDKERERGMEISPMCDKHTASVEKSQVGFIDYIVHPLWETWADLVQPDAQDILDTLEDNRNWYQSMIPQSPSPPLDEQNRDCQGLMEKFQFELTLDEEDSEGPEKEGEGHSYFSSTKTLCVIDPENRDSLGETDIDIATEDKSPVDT
Test: Inhibition of human PDE4B
Conditions: read-out: IC50
Respond with the bare value in µM.

Here is how some compounds turned out for IC50.
CCCc1nc(Nc2ccc(CC(=O)O)cc2)nc(-c2ccc(Cl)s2)n1 | 2.45
CCc1nc(Nc2ccc(C(C)C(=O)O)cc2)nc(-c2cccc(Cl)c2)n1 (stereo not drawn) | 1.09

The record that follows has no IC50 shown yet.
So for CCc1nc(Nc2ccc(C(=O)O)cc2)nc(-c2cccc(Cl)c2)n1 , the logged IC50 turned out to be 0.241
